assay: Single oral dose plasma pharmacokinetics in healthy subjects; assay type: in vivo, human; details: human, plasma; healthy subjects, single oral dose, fasted; read-out: median Tmax
REPORTED_PROPERTY: Tmax (h)
Answers are plain numbers, in h.

Q) Need Tmax of O=C(O)c1cc(F)c2nc(N3C4CC[C@H]3CC(OCc3c(-c5ccccc5OC(F)(F)F)noc3C3CC3)C4)sc2c1 (stereo partly shown) , thanks.
A) 4

---

test: Single oral dose plasma pharmacokinetics in healthy subjects; assay type: in vivo, human; conditions: human, 30 ug; healthy subjects, single oral dose 30 μg, fasted, plasma; mean
REPORTED_PROPERTY: AUC(0-t) (ng·h/mL)
One number for each entry, in ng·h/mL.

Q) Need AUC(0-t) of O=C(O)c1cc(F)c2nc(N3C4CC[C@H]3CC(OCc3c(-c5ccccc5OC(F)(F)F)noc3C3CC3)C4)sc2c1 (stereo partly shown) [Compound A] , thanks.
A) 12.7
